Measured values drawn from ChEMBL document CHEMBL6071196 for this set.

Experiment: Selectivity index, ratio of IC50 for cytotoxicity against african green monkey Vero cells incubated for 48 hrs by celltiter blue assay to MIC for antibacterial activity against Mycoplasma genitalium G37C assessed as bacterial growth inhibition incubated for 7 days by phenol red reagent based microbroth dilution assay
Format: toxicity, cell-based
Conditions: read-out: Selectivity Index
Parameter: selectivity ratio at 48 h
Give only the figure.

Observe how each entry below is paired with its result.
CCCCC[C@H]1[C@H](C)C[C@H]2C[C@@H](C)CC[C@@H]2[C@@]1(C)/C(O)=C1\C(=O)[C@@H](CO)N(C)C1=O = 51.6
C#CCOC[C@@H]1C(=O)/C(=C(/O)[C@@]2(C)[C@@H](/C=C/C=C/C[C@@H](C)OCC#C)C(C)=C[C@H]3C[C@@H](C)CC[C@@H]32)C(=O)N1C = 14

Returns the measured selectivity ratio at 48 h for the input compound. Input: "C/C=C/C=C/[C@H]1C(C)=C[C@H]2C[C@@H](C)CC[C@@H]2[C@@]1(C)/C(O)=C1\C(=O)[C@@H](COCC=C(C)C)N(C)C1=O" 8.8

Param item: "CC1=C[C@H]2C[C@@H](C)CC[C@@H]2[C@@](C)(/C(O)=C2\C(=O)[C@@H](COCc3cn(CCO)nn3)N(C)C2=O)[C@H]1/C=C/C=C/C[C@@H](C)O" 6.5

Another compound: "C/C=C/[C@@H]1C=C[C@@H]2C[C@H](C)CC[C@H]2[C@]1(C)/C(O)=C1\C(=O)[C@@H](CO)N(C)C1=O" 11.5

###

Experiment: Selectivity index, ratio of IC50 for cytotoxicity against african green monkey Vero cells incubated for 48 hrs by celltiter blue assay to IC50 for antibacterial activity against Mycoplasma genitalium Sea-1 assessed as bacterial growth inhibition incubated for 30 mins by qPCR analysis
Assay type: toxicity, cell-based
Conditions: read-out: Ratio IC50
Parameter: selectivity ratio at 48 h
Please give the numeric answer without any surrounding text.

State the recorded selectivity ratio at 48 h for this entry: "C/C=C/C=C/[C@H]1C(C)=C[C@H]2C[C@@H](C)CC[C@@H]2[C@@]1(C)/C(O)=C1\C(=O)[C@H](COCc2cn(CCc3ccc(O)cc3)nn2)N(C)C1=O" 96

###

Catalogue of selectivity ratio at 48 h readings, one per entry.
Assay: Selectivity index, ratio of IC50 for cytotoxicity against african green monkey Vero cells incubated for 48 hrs by celltiter blue assay to EC50 for anti-trichomonal activity against Trichomonas vaginalis assessed as inhibition of parasite growth incubated for 18 hrs
Assay type: toxicity, cell-based
Details: read-out: Ratio IC50/EC50
Kindly provide the number alone.

A selection of reference data follows.
C#CCOC[C@@H]1C(=O)/C(=C(/O)[C@@]2(C)[C@@H](/C=C/C=C/C[C@@H](C)O)C(C)=C[C@H]3C[C@@H](C)CC[C@@H]32)C(=O)N1C = 24.3
C/C=C/C=C/[C@H]1C(C)=C[C@H]2C[C@@H](C)CC[C@@H]2[C@@]1(C)/C(O)=C1\C(=O)[C@@H](COCc2cn(Cc3ccc(C(=O)O)cc3)nn2)N(C)C1=O = 12.8

// query selectivity ratio at 48 h value for entry "CC1=C[C@H]2C[C@@H](C)CC[C@@H]2[C@@](C)(/C(O)=C2\C(=O)[C@@H](CO)N(C)C2=O)[C@H]1/C=C/C=C/C[C@@H](C)O" 315

Do the same for "C/C=C/C=C/[C@H]1C(C)=C[C@H]2C[C@@H](C)CC[C@@H]2[C@@]1(C)/C(O)=C1/C(=O)N[C@H](CO)C1=O" please 119

Then this compound: "CCCCC[C@H]1[C@H](C)C[C@H]2C[C@@H](C)CC[C@@H]2[C@@]1(C)/C(O)=C1\C(=O)[C@@H](CO)N(C)C1=O" 72.6
